# credit: patent US20190040102A1

target: somatostatin receptor type 2 (SSTR2) (UniProt P30874 1-369); experiment: cell-based or functional assay
Sequence (P30874 whole entry): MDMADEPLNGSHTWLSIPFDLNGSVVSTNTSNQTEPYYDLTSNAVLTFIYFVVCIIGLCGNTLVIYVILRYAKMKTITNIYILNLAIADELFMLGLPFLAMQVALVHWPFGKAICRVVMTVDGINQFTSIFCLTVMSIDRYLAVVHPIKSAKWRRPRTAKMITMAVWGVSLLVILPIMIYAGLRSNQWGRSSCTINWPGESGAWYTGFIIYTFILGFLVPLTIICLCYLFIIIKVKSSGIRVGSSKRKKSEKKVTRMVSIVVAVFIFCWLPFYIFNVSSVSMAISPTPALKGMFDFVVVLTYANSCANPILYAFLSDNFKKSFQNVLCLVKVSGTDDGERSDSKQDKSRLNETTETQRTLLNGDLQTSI
Positions of bridges follow the written chain, without caps; N, C: chain ends. Non-standard residues stand in square brackets, D forms with d. *: point of attachment. Phe(4-Cl) = N[C@@H](Cc1ccc(Cl)cc1)C(=O)O; Nicotinoyl = O=C(c1cccnc1)*
assay-metric: IC50 (PathHunter β-Arrestin, antagonist mode) (µM)

INSERT INTO assay_data (binder, unit_text, reported_value) VALUES
  ('H-[Phe(4-Cl)][dC]Y[dK](Nicotinoyl)KTC[dY]-NH2 (disulfide 2-7; SMILES C[C@@H](O)[C@@H]1NC(=O)[C@H](CCCCN)NC(=O)[C@@H](CCCCNC(=O)c2cccnc2)NC(=O)[C@H](Cc2ccc(O)cc2)NC(=O)[C@H](NC(=O)[C@@H](N)Cc2ccc(Cl)cc2)CSSC[C@@H](C(=O)N[C@H](Cc2ccc(O)cc2)C(N)=O)NC1=O) [Compound 3: H-Cpa-cyclo[DCys-Tyr-D-(Nε-nicotinoyl)Lys-Lys-Thr-Cys]-DTyr-NH2]', 'µM', 0.251);

A = H-[Phe(4-Cl)][dC]Y[dAph(Glu)]KTC[dY]-NH2 (disulfide 2-7) [Compound 20: H-Cpa-cyclo[DCys-Tyr-D-4-(Glu)Aph-Lys-Thr-Cys]-DTyr-NH2]
B = H-[Phe(4-Cl)][dC]Y[dAph(Val)]KTC[dY]-NH2 (disulfide 2-7) [Compound 23: H-Cpa-cyclo[DCys-Tyr-D-4-(Val)Aph-Lys-Thr-Cys]-DTyr-NH2]
Problem: // returns A or B , whichever has the lower IC50 (PathHunter β-Arrestin, antagonist mode) Mark your answer with the label of the selected entry.
Solution: B
(B: 0.458 µM, A: 0.924 µM)
